Target Or System: Human Serum Albumin (HSA) (Homo sapiens)
Construct: HSA (≥96%) and six PFAS were all purchased from Aladdin Chemicals (Shanghai, China); purchased Aladdin Chemicals (Shanghai, China)
Sequence (P02768 25-609): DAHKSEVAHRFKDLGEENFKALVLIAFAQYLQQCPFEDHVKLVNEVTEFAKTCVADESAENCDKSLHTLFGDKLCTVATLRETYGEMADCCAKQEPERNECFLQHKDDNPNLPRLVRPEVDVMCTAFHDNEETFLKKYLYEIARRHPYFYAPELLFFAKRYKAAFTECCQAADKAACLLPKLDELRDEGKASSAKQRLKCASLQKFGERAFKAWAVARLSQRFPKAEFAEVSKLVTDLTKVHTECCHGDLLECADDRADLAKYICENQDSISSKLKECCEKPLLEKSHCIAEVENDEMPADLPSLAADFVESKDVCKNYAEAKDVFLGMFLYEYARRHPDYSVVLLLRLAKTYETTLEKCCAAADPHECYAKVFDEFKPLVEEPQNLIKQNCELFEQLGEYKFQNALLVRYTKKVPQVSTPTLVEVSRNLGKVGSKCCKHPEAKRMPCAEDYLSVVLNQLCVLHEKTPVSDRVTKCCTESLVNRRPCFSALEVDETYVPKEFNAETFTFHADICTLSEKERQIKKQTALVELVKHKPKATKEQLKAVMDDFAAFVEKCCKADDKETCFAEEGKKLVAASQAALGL
Method Summary: Fluorescence quenching of HSA by PFAS (Stern–Volmer, double logarithmic and Van't Hoff analysis)
Type: binding
Experimental Context: Van't Hoff, 298–310 K
Assay Endpoint: ΔS (J·mol^−1·K^−1)

Molecule	Target Or System	Value Units	Val
O=C(O)C(F)(F)C(F)(F)C(F)(F)C(F)(F)C(F)(F)C(F)(F)C(F)(F)C(F)(F)F	Human Serum Albumin (HSA) (Homo sapiens)	J·mol^−1·K^−1	−805.8
O=C(O)C(F)(F)C(F)(F)C(F)(F)C(F)(F)C(F)(F)C(F)(F)C(=O)O	Human Serum Albumin (HSA) (Homo sapiens)	J·mol^−1·K^−1	622.5
O=C(O)C(F)(F)OC(F)(F)C(F)(F)OC(F)(F)C(F)(F)OC(F)(F)F	Human Serum Albumin (HSA) (Homo sapiens)	J·mol^−1·K^−1	−259.2
O=C(O)C(F)(OC(F)(F)C(F)(OC(F)(F)C(F)(F)C(F)(F)F)C(F)(F)F)C(F)(F)F (stereo not shown)	Human Serum Albumin (HSA) (Homo sapiens)	J·mol^−1·K^−1	1508.3
